- measured.target: T1, recombinant human IL-23R/Fc chimera (R&D Systems) (human, UniProt Q5VWK5 24-353)
- T1 construct: bought; also called human IL-23R/Fc fusion protein; rhIL23RFc
- T1 sequence (looked up): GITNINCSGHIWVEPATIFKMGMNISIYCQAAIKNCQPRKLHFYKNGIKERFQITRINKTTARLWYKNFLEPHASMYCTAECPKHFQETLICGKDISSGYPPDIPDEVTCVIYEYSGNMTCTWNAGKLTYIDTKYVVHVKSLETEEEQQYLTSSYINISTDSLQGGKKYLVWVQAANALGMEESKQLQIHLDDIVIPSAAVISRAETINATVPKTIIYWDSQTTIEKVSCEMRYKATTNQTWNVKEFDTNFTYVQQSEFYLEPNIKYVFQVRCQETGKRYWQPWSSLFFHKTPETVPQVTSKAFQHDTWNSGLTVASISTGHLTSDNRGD
- experiment: competition ELISA against IL-23
The following binders are shown together with reported Ratio IC50 to 056-53.H4E IC50 values.
Write down the numeric answer in ratio and omit the unit.

105-08-2F6 ATRIMER (designed binder, not shown: C-terminal tag: His/Myc (pANA4) or HA-StrepII (pANA10)) EPPTQKPKKIVNAKKDVVNTKMFEELKSRLDTLAQEVALLKEQQALQTVCLKGTKVHMKCFLAFTQTKTFHEASEDCISRGGTLSTPQTGSENDALYEYLRQSVGNEAEIWLGLNGSAYTNTWVDMTGARIAYKNWETEITAQPDGGFGYFGENCAVLSGAANGKWFDKRCRDQLPYICQFGIV ... 2.4

# input Look at this binder and give its reported Ratio IC50 to 056-53.H4E IC50. 105-08-1G2 ATRIMER (designed binder, not shown: C-terminal tag: His/Myc (pANA4) or HA-StrepII (pANA10)) EPPTQKPKKIVNAKKDVVNTKMFEELKSRLDTLAQEVALLKEQQALQTVCLKGTKVHMKCFLAFTQTKTFHEASEDCISRGGTLSTPQTGSENDALYEYLRQSVGNEAEIWLGLNGSSKTNTWVDMTGARIAYKNWETEITAQPDGGWGYFGENCAVLSGAANGKWFDKRCRDQLPYICQFGIV
# output 5.5

# input Look at this binder and give its reported Ratio IC50 to 056-53.H4E IC50. 105-08-2H10 ATRIMER (designed binder, not shown: C-terminal tag: His/Myc (pANA4) or HA-StrepII (pANA10)) EPPTQKPKKIVNAKKDVVNTKMFEELKSRLDTLAQEVALLKEQQALQTVCLKGTKVHMKCFLAFTQTKTFHEASEDCISRGGTLSTPQTGSENDALYEYLRQSVGNEAEIWLGLNGSNHTDTWVDMTGARIAYKNWETEITAQPDGGFGYFGENCAVLSGAANGKWFDKRCRDQLPYICQFGIV
# output 6.5

Each recorded value in this set is attributed to patent US20110086770A1.
